System: NCI-H322M lung
PROCEDURE SUMMARY: NCI-60 one-dose screen, 48 h
SETTINGS: 10 µM unless noted
The panel holds about 83,000 compounds, 20% with a hit somewhere; the sample as a whole holds those more often. Calls of active or inactive are those of the source. The calls were made as follows: active = growth percent below 10; inactive = the rest.
Respond only with the outcome that fits, drawn from active, inactive

These recorded examples may help you get a feel for the data.
• COc1ccc(Sc2ccc3[nH]c(=O)nc(N)c3c2)cc1 = inactive
• Cn1c2ccccc2c2nn(Cc3ccccc3)c(=O)nc21 = inactive
• Cc1nn(CC(=O)O)c2c1C(=O)CC(C)(C)C2 = inactive
• Nc1c(Br)cc(Br)cc1-c1n[nH]c(=O)[nH]c1=O = inactive
• CCCN1CCN(c2ccc3nc(-c4ccc5nc(-c6ccc(C(F)(F)F)cc6)[nH]c5c4)[nH]c3c2)CC1 = active

Turning to the following molecule.
Q: Which outcome was assigned to `Cc1nc(NC(=O)COc2cccc(/C=C3\COc4ccccc4C3=O)c2)sc1C` in this test?
Result: inactive
